# Target Or System: GDP-bound KRAS wild-type protein (Homo sapiens)
# Test Description: Binding to KRAS by surface plasmon resonance (SPR), Single Cycle Kinetics
# Applied Conditions: SPR, Single Cycle Kinetics, GDP-bound KRAS wild-type protein; read-out: KRAS KD
pKd: −log10 of the molar value. *1 amine or outer side, *2 acyl side, *3 side chain or, on linkers, in order; H or OH if unused. Where a SMILES comes first, the peptide text is derived from it. Bridges are numbered along the chain shown (N, C = ends). [ ]: non-standard residue; d: D form. hPhe(3-Cl-4-CF3) = N[C@@H](CCc1ccc(C(F)(F)F)c(Cl)c1)C(=O)O; NPrPhe(4-CF3) = CCCN[C@@H](Cc1ccc(C(F)(F)F)cc1)C(=O)O; NEtAsp = CCN([C@@H](CC(=O)[*:3])C(=O)[*:2])[*:1]; NMeGly(cPent) = CN[C@H](C(=O)O)C1CCCC1; NMeL = CN[C@@H](CC(C)C)C(=O)O; Ac4c = NC1(C(=O)O)CCC1; Sar = CNCC(=O)O
Quick reference: pKd of the listed items.
Quantity Kind: pKd

compound="CCCN1C(=O)CN(C)C(=O)CN(C)C(=O)[C@H]([C@@H](C)CC)NC(=O)[C@H](CC(C)C)N(C)C(=O)C[C@@H](C(=O)N(C)C)N(CC)C(=O)[C@H](C2CCCC2)N(C)C(=O)C2(CCC2)NC(=O)[C@@H]2CCCN2C(=O)[C@H](CCc2ccc(C(F)(F)F)c(Cl)c2)NC(=O)CN(C)C(=O)[C@@H]1Cc1ccc(C(F)(F)F)cc1 [PP1956] ([NMeL]I[Sar][Sar][NPrPhe(4-CF3)][Sar][hPhe(3-Cl-4-CF3)]P[Ac4c][NMeGly(cPent)][NEtAsp]-NMe2; lactam N-11)" target_or_system="GDP-bound KRAS wild-type protein (Homo sapiens)" measured_value=9.55
compound="CCO[C@@H]1C[C@H]2C(=O)NC3(CC(C)(C)C3)C(=O)N(C)[C@@H](C3CCCC3)C(=O)N(C)[C@H](C(=O)N(C)C)CC(=O)N(C)[C@@H](CC)C(=O)N[C@@H]([C@@H](C)CC)C(=O)N(C)CC(=O)N(C)[C@H]3C/C=C\\CCN(C3=O)[C@@H](Cc3ccc(Cl)cc3F)C(=O)N(C)CC(=O)N[C@@H](CCc3cc(F)c(C(F)(F)F)c(F)c3)C(=O)N2C1 [PP2048]" target_or_system="GDP-bound KRAS wild-type protein (Homo sapiens)" measured_value=10.15
compound="CCO[C@@H]1C[C@H]2C(=O)NC3(CCCC3)C(=O)N(C)[C@@H](C3CCCC3)C(=O)N(C)[C@H](C(=O)N(C)C)CC(=O)N(C)[C@@H](CC)C(=O)N[C@@H]([C@@H](C)CC)C(=O)N(C)CC(=O)N(C)[C@H]3C[C@@H](C)CCN(C3=O)[C@@H](Cc3ccc(C(F)(F)F)cc3)C(=O)N(C)CC(=O)N[C@@H](CCc3cc(F)c(C(F)(F)F)c(F)c3)C(=O)N2C1 [PP1022]" target_or_system="GDP-bound KRAS wild-type protein (Homo sapiens)" measured_value=10.44

----------
# Target Or System: GDP-bound KRAS wild-type protein (Homo sapiens, UniProt P01116)
# Sequence (P01116 whole entry): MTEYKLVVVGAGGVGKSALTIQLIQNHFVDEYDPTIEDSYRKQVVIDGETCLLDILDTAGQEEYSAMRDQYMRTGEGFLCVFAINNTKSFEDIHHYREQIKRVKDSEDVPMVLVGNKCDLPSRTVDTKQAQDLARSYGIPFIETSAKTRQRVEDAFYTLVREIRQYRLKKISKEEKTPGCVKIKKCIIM
# Test Description: Binding to KRAS by surface plasmon resonance (SPR), Single Cycle Kinetics
# Applied Conditions: SPR, Single Cycle Kinetics, GDP-bound KRAS wild-type protein; read-out: KRAS KD
pKd: −log10 of the molar value.
Quick reference: pKd of the listed items.
Quantity Kind: pKd

structure_notation=CCC[C@H]1C(=O)N[C@@H]([C@@H](C)CC)C(=O)N(C)CC(=O)N(C)[C@H]2C/C=C\CCN(C2=O)[C@@H](Cc2ccc(C)cc2)C(=O)N(C)CC(=O)N[C@@H](CCc2ccc(C(F)(F)F)c(Cl)c2)C(=O)N2C[C@H](OCC)C[C@H]2C(=O)NC2(CCC2)C(=O)N(C)[C@@H](C2CCCC2)C(=O)N(C)[C@H](C(=O)N(C)CC)CC(=O)N1C measured_value=9.89
structure_notation=CCO[C@@H]1C[C@H]2C(=O)NC3(CCC3)C(=O)N(C)[C@@H](C3CCCC3)C(=O)N(C)[C@H](C(=O)N(C)C)CC(=O)N(C)[C@@H](CC3CC3)C(=O)N[C@@H]([C@@H](C)CC)C(=O)N(C)CC(=O)N(C)[C@H]3CCCCCN(C3=O)[C@@H](Cc3ccc(F)cc3)C(=O)N(C)CC(=O)N[C@@H](CCc3cc(F)c(C(F)(F)F)c(F)c3)C(=O)N2C1 measured_value=10.40
structure_notation=CCO[C@@H]1C[C@H]2C(=O)NC3(CC(C)(C)C3)C(=O)N(C)[C@@H](C(CC)CC)C(=O)N3CCC[C@@H]3CC(=O)N(C)[C@@H](CC3CC3)C(=O)N[C@@H]([C@@H](C)CC)C(=O)N(C)CC(=O)N(C)[C@H]3C/C=C\CCN(C3=O)[C@@H](Cc3ccc(C(F)(F)F)cc3)C(=O)N(C)CC(=O)N[C@@H](CCc3cc(F)c(C(F)(F)F)c(F)c3)C(=O)N2C1 measured_value=8.85
structure_notation=CC[C@H](C)[C@@H]1NC(=O)[C@H](CC(C)C)N(C)C(=O)C[C@@H](C(=O)N(C)CC)N(C)C(=O)[C@H](C2CCCC2)N(C)C(=O)C2(CC(C)(C)C2)NC(=O)[C@@H]2C[C@H](C)CN2C(=O)[C@H](CCc2ccc(C(F)(F)F)c(OC)c2)NC(=O)CN(C)C(=O)[C@H](Cc2ccc(C)cc2)N2CC/C=C\C[C@@H](C2=O)N(C)C(=O)[C@@H]2CCCN2C1=O measured_value=8.96
structure_notation=CCO[C@@H]1C[C@H]2C(=O)NC3(CCC3)C(=O)N(C)[C@@H](C3CCCC3)C(=O)N(C)[C@H](C(=O)N(C)CC)CC(=O)N(C)[C@@H](CC3CC3)C(=O)N[C@@H]([C@@H](C)CC)C(=O)N(C)CC(=O)N(C)[C@H]3C/C=C\CCN(C3=O)[C@@H](Cc3ccc(C)cc3)C(=O)N(C)CC(=O)N[C@@H](CCc3ccc(C(F)(F)F)c(OC)c3)C(=O)N2C1 measured_value=9.74
structure_notation=CCO[C@@H]1C[C@H]2C(=O)NC3(CCC3)C(=O)N(C)[C@@H](C3CCCC3)C(=O)N(C)[C@H](C(=O)N(C)C)CC(=O)N(C)[C@@H](CC3CCCCC3)C(=O)N[C@@H]([C@@H](C)CC)C(=O)N(C)CC(=O)N(C)[C@H]3C/C=C\CCN(C3=O)[C@@H](Cc3ccc(C(F)(F)F)cc3)C(=O)N(C)CC(=O)N[C@@H](CCc3cc(F)c(C(F)(F)F)c(F)c3)C(=O)N2C1 measured_value=10.15

----------
# Target Or System: GDP-bound KRAS wild-type protein (Homo sapiens, UniProt P01116)
# Test Description: Binding to KRAS by surface plasmon resonance (SPR), Single Cycle Kinetics
# Applied Conditions: SPR Single Cycle Kinetics, GDP-bound KRAS wild-type protein, 1:1 binding model; read-out: KRAS KD
pKd: −log10 of the molar value. *1 amine or outer side, *2 acyl side, *3 side chain or, on linkers, in order; H or OH if unused. Where a SMILES comes first, the peptide text is derived from it. Bridges are numbered along the chain shown (N, C = ends). [ ]: non-standard residue; d: D form. The star is where a group is joined. hPhe(3,5-F2-4-CF3) = N[C@@H](CCc1cc(F)c(C(F)(F)F)c(F)c1)C(=O)O; hPhe(3-Cl-4-CF3) = N[C@@H](CCc1ccc(C(F)(F)F)c(Cl)c1)C(=O)O; X52 = CCCN([C@@H](Cc1ccc(OC(F)(F)F)cc1)C(=O)[*:2])[*:1]; NPrPhe(4-CF3) = CCCN[C@@H](Cc1ccc(C(F)(F)F)cc1)C(=O)O; NEtPhe(4-CF3) = CCN[C@@H](Cc1ccc(C(F)(F)F)cc1)C(=O)O; Pro(4-spirocPr) = O=C(O)[C@@H]1CC2(CC2)CN1; NMeGly(cPent) = CN[C@H](C(=O)O)C1CCCC1; NMeD = CN[C@@H](CC(=O)O)C(=O)O; NMeL = CN[C@@H](CC(C)C)C(=O)O; Iva = CC[C@](C)(N)C(=O)O; Morpholide = C1CN(*)CCO1; NMeA = CN[C@@H](C)C(=O)O; Ac5c = NC1(C(=O)O)CCCC1; Aze = O=C(O)[C@@H]1CCN1; X24 = CC1(C)CCN(*)C1; Sar = CNCC(=O)O
Quantity Kind: pKd

compound="CC[C@H](C)[C@@H]1NC(=O)[C@H](CC(C)C)N(C)C(=O)C[C@@H](C(=O)N2CCOCC2)N(C)C(=O)[C@H](C2CCCC2)N(C)C(=O)C2(CCCC2)NC(=O)[C@@H]2CCCN2C(=O)[C@H](CCc2ccc(C(F)(F)F)c(Cl)c2)NC(=O)CN(C)C(=O)[C@H](Cc2ccc(C(F)(F)F)cc2)N(CC)C(=O)CN(C)C(=O)CN(C)C1=O [PP0023] ([NMeL]I[Sar][Sar][NEtPhe(4-CF3)][Sar][hPhe(3-Cl-4-CF3)]P[Ac5c][NMeGly(cPent)][NMeD]-Morpholide; lactam N-11)" target_or_system="GDP-bound KRAS wild-type protein (Homo sapiens, UniProt P01116)" measured_value=9.85
compound="CCCN1C(=O)[C@@H]2CCN2C(=O)[C@H](C)N(C)C(=O)[C@H]([C@@H](C)CC)NC(=O)[C@H](CC(C)C)N(C)C(=O)C[C@@H](C(=O)N2CCC(C)(C)C2)N(C)C(=O)[C@H](C2CCCC2)N(C)C(=O)C2(CCCC2)NC(=O)[C@@H]2CCCN2C(=O)[C@H](CCc2ccc(C(F)(F)F)c(Cl)c2)NC(=O)CN(C)C(=O)[C@@H]1Cc1ccc(C(F)(F)F)cc1 [PP0186] ([NMeL]I[NMeA][Aze][NPrPhe(4-CF3)][Sar][hPhe(3-Cl-4-CF3)]P[Ac5c][NMeGly(cPent)][NMeD]-X24; lactam N-11)" target_or_system="GDP-bound KRAS wild-type protein (Homo sapiens, UniProt P01116)" measured_value=8.77
compound=CCC[C@H]1C(=O)N[C@@H]([C@@H](C)CC)C(=O)N(C)CC(=O)N(C)[C@H]2C/C=C\CCN(C2=O)[C@@H](Cc2ccc(C(F)(F)F)cc2)C(=O)N(C)CC(=O)N[C@@H](CCc2ccc(Cl)c(Cl)c2)C(=O)N2C[C@H](OCC)C[C@H]2C(=O)NC2(CC(C)(C)C2)C(=O)N(C)[C@@H](CC(C)(C)C)C(=O)N(C)[C@H](C(=O)N(C)C)CC(=O)N1C target_or_system="GDP-bound KRAS wild-type protein (Homo sapiens, UniProt P01116)" measured_value=9.77
compound=CCO[C@@H]1C[C@H]2C(=O)NC3(CCC3)C(=O)N(C)[C@@H](C3CCCC3)C(=O)N(CCC3CCCC3)[C@H](C(=O)N(C)C)CC(=O)N(C)[C@@H](CC)C(=O)N[C@@H]([C@@H](C)CC)C(=O)N(C)CC(=O)N(C)[C@H]3CCCCCN(C3=O)[C@@H](Cc3ccc(C(F)(F)F)cc3)C(=O)N(C)CC(=O)N[C@@H](CCc3cc(F)c(C(F)(F)F)c(F)c3)C(=O)N2C1 target_or_system="GDP-bound KRAS wild-type protein (Homo sapiens, UniProt P01116)" measured_value=8.07
compound="CCCN1C(=O)CN(C)C(=O)CN(C)C(=O)[C@H]([C@@H](C)CC)NC(=O)[C@H](CC(C)C)N(C)C(=O)C[C@@H](C(=O)N2CCOCC2)N(C)C(=O)[C@H](C2CCCC2)N(C)C(=O)C2(CCCC2)NC(=O)[C@@H]2CCCN2C(=O)[C@H](CCc2ccc(C(F)(F)F)c(Cl)c2)NC(=O)CN(C)C(=O)[C@@H]1Cc1ccc(OC(F)(F)F)cc1 [PP0137] ([NMeL]I[Sar][Sar][X52][Sar][hPhe(3-Cl-4-CF3)]P[Ac5c][NMeGly(cPent)][NMeD]-Morpholide; lactam N-11)" target_or_system="GDP-bound KRAS wild-type protein (Homo sapiens, UniProt P01116)" measured_value=9.33
compound="CCCN1C(=O)CN(C)C(=O)CN(C)C(=O)[C@H]([C@@H](C)CC)NC(=O)[C@H](CC(C)C)N(C)C(=O)C[C@@H](C(=O)N2CCOCC2)N(C)C(=O)[C@H](C2CCCC2)N(C)C(=O)C2(CCCC2)NC(=O)[C@@H]2CC3(CC3)CN2C(=O)[C@H](CCc2ccc(C(F)(F)F)c(Cl)c2)NC(=O)CN(C)C(=O)[C@@H]1Cc1ccc(C(F)(F)F)cc1 [PP0261] ([NMeL]I[Sar][Sar][NPrPhe(4-CF3)][Sar][hPhe(3-Cl-4-CF3)][Pro(4-spirocPr)][Ac5c][NMeGly(cPent)][NMeD]-Morpholide; lactam N-11)" target_or_system="GDP-bound KRAS wild-type protein (Homo sapiens, UniProt P01116)" measured_value=9.85
compound=CCC[C@H]1C(=O)N[C@@H]([C@@H](C)CC)C(=O)N(C)CC(=O)N(C)[C@H]2C/C=C\CCN(C2=O)[C@@H](Cc2ccc(C(F)(F)F)cc2)C(=O)N(C)CC(=O)N[C@@H](CCc2ccc(C(F)(F)F)c(Cl)c2)C(=O)N2C[C@H](OCC)C[C@H]2C(=O)NC2(CC(C)(C)C2)C(=O)N(C)[C@@H](CC(C)(C)C)C(=O)N(C)[C@H](C(=O)N(C)C)CC(=O)N1C target_or_system="GDP-bound KRAS wild-type protein (Homo sapiens, UniProt P01116)" measured_value=10.14
compound=CCO[C@@H]1C[C@H]2C(=O)NC3(CCC3)C(=O)N(C)[C@@H](C3CCCC3)C(=O)N(C)[C@H](C(=O)N(C)C)CC(=O)N(C)[C@@H](CC3CCCCC3)C(=O)N[C@@H]([C@@H](C)CC)C(=O)N(C)CC(=O)N(C)[C@H]3CCCCN(C3=O)[C@@H](Cc3ccc(C(F)(F)F)cc3)C(=O)N(C)CC(=O)N[C@@H](CCc3cc(F)c(C(F)(F)F)c(F)c3)C(=O)N2C1 target_or_system="GDP-bound KRAS wild-type protein (Homo sapiens, UniProt P01116)" measured_value=10.77
compound="CCCN1C(=O)[C@@H]2CCN2C(=O)CN(C)C(=O)[C@H]([C@@H](C)CC)NC(=O)[C@H](CC(C)C)N(C)C(=O)C[C@@H](C(=O)N2CCOCC2)N(C)C(=O)[C@H](C2CCCC2)N(C)C(=O)[C@](C)(CC)NC(=O)[C@@H]2CCCN2C(=O)[C@H](CCc2cc(F)c(C(F)(F)F)c(F)c2)NC(=O)CN(C)C(=O)[C@@H]1Cc1ccc(C(F)(F)F)cc1 [PP0790] ([NMeL]I[Sar][Aze][NPrPhe(4-CF3)][Sar][hPhe(3,5-F2-4-CF3)]P[Iva][NMeGly(cPent)][NMeD]-Morpholide; lactam N-11)" target_or_system="GDP-bound KRAS wild-type protein (Homo sapiens, UniProt P01116)" measured_value=9.25
